- assay-notes: NIH-3T3 fibroblast cytotoxicity, dose response, cytotoxicity control, cell-based, fluorescence, Alamar Blue, secondary assay (AID 2327);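 further: NIH-3T3 mouse fibroblasts cultured with fluconazole at 8 µg/mL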
- Format: functional
The source made the active and inactive calls.
Consider the following molecules; for each one, report its EC50.

O=[N+]([O-])c1cc(/C=N/Nc2nc3ccccc3[nH]2)c(O)cc1O | > 150 µM (inactive)
O=C(Cc1cccs1)Nc1cccc(-c2nc3ccccc3[nH]2)c1 | > 150 µM (inconclusive)

# context switch: different molecule, same EC50
EC50 measured on `O=C(CSCc1ccc(Cl)cc1)Nc1cc([N+](=O)[O-])ccc1O` = > 150 µM (inactive)

---

- target-or-system: Fatty acid synthase (Homo sapiens)
- Sequence (P49327 whole entry, the tested form may be a part): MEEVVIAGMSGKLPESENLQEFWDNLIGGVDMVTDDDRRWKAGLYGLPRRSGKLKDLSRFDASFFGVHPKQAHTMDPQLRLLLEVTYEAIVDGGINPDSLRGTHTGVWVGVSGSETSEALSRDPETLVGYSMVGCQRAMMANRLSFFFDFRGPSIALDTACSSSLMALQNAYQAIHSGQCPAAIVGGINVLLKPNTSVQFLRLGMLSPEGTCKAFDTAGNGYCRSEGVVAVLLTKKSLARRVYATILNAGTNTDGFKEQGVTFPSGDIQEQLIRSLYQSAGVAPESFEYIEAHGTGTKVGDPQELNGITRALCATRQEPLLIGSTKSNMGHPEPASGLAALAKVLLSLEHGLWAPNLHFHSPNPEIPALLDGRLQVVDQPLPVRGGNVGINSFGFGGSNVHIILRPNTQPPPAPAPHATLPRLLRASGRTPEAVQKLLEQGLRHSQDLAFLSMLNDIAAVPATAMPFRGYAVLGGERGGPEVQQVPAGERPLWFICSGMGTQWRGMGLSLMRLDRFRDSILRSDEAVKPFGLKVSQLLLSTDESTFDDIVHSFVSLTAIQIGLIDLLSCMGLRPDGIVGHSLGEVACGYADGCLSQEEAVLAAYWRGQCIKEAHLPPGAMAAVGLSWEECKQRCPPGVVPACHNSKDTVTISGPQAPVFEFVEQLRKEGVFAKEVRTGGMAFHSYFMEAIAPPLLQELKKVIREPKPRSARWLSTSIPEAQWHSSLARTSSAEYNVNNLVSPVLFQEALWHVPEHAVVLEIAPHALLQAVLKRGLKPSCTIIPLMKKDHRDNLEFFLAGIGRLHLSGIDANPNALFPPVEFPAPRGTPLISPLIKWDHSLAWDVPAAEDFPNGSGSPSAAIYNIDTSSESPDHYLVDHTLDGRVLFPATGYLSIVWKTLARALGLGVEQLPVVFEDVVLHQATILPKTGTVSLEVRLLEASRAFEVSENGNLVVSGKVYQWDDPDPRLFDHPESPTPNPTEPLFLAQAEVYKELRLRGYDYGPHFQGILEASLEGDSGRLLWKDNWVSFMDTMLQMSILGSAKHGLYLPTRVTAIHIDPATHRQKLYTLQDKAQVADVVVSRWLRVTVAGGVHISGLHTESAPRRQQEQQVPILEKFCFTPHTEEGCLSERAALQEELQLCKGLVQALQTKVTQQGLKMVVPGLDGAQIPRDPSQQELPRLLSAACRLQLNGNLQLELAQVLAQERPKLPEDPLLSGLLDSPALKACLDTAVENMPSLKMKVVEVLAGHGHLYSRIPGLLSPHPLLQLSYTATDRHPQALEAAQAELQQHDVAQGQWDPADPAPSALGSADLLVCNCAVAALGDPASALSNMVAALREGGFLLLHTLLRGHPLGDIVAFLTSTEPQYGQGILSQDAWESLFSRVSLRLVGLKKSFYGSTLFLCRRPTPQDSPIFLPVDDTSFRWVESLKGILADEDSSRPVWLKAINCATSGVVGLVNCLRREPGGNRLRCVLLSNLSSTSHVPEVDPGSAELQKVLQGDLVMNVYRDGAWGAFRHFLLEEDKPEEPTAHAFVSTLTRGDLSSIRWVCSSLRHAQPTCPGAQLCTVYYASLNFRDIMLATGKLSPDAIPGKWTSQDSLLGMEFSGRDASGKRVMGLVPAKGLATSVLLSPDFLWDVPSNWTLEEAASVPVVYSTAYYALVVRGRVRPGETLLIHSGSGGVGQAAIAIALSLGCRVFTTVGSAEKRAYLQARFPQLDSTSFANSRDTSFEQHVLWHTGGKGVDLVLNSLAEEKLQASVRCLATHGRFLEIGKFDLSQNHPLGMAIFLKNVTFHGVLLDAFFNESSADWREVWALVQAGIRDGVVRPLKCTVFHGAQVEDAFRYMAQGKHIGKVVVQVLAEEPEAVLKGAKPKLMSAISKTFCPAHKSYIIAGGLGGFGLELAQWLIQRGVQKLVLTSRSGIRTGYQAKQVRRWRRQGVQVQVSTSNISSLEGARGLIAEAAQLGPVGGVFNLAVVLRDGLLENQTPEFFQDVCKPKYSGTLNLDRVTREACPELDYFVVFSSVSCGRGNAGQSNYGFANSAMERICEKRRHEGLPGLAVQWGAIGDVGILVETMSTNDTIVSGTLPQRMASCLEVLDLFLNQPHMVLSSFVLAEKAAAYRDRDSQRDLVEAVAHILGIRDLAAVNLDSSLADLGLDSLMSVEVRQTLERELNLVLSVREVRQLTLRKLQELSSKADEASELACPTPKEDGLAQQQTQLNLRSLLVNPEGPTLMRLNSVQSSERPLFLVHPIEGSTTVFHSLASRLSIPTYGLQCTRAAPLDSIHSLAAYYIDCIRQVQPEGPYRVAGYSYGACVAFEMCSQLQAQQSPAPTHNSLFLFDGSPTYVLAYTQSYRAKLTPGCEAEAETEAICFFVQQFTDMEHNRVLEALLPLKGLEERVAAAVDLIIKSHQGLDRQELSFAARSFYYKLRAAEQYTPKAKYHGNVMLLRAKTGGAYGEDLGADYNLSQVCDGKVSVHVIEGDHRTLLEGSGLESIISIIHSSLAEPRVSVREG
- assay-notes: FAS thioesterase domain inhibitors, dose response, biochemical, kinetic fluorescence intensity (AID 624326);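 further: rate of fluorescence rise from hydrolysis of a fluorogenic O-methyl fluorescein ester substrate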
- Format: functional
Calls of active or inactive are those of the source.
measure-name: IC50

COc1ccc2cc3cc(C(=O)N4CCCCC4C)oc3nc2c1 (centres undefined) | 2.52 µM (active)
CCCCC(CC)C(=O)Nc1cc([N+](=O)[O-])ccc1F (centres undefined) | 4.44 µM (active)

Below are some molecules; for each one, tell me its IC50.
1. CC(C)(C)C(=O)OCc1ccc(C2=CC(=O)CC(C)(C)C2=O)cc1
2. COc1ccc([N+](=O)[O-])cc1NC(=O)C(C)OC(=O)CC1CCCC1 (centres undefined)

Ans:
3.9 µM (active)
5.28 µM (active)
